Target: MAP2K4; also: test concentration or dose not given here
Settings: ASO
These antisense oligonucleotides have a phosphorothioate backbone; sugars and methylation of C are not fully specified.
MEASUREMENT_NAME: remaining target (mRNA or protein) (fraction of control)
Answers are plain numbers.

Previously resolved entries follow.
| MACROMOLECULE_SEQUENCE | TEST_SYSTEM | MEASUREMENT |
| --- | --- | --- |
| CACCTTCTTTGACAAGTGGC | MAP2K4 | 0.42 |
| TTTGTTTTAATAAAGATACA | MAP2K4 | 0.88 |
| GCCTCTTGTAACAGTGCTGA | MAP2K4 | 0.47 |
| AGACCTGGACCAGTGATGGC | MAP2K4 | 0.6 |
| AAGGATGCACGTTCTAGGTG | MAP2K4 | 0.55 |

Could you report remaining target (mRNA or protein) (fraction of control) for every entry in the following list?
1. CACTACTCCGCATTACTACA
2. GCTGTGCAAGCTCTTCTCAC

Result:
1. 0.56
2. 0.63
